target: HLA-B*18:01; assay: IEDB peptide-MHC binding, purified MHC/competitive/radioactivity; filed as Kd, often an IC50 or EC50 that approximates it; bounds were set here for any values at or beyond the usual limits of such assays; settings: source organism: Mammarenavirus brazilense
value_kind: pKd
pKd field: float, defined as -log10 of concentration (mol/L).

Input line: Please list pKd recorded for the sequence `YEQQTVNST`
Output line: 5.95

====

target: HLA-A*31:01; assay: IEDB peptide-MHC binding, purified MHC/competitive/radioactivity; filed as Kd, often an IC50 or EC50 that approximates it; bounds were set here for any values at or beyond the usual limits of such assays; conditions: source organism: Vaccinia virus WR
Documented pKd across a set of sequences
pKd field: float, defined as -log10 of concentration (mol/L).

{"seq_string": "KIMSIGFEAR", "pKd": 8.22}
{"seq_string": "ATSSFREKSR", "pKd": 8.44}
{"seq_string": "TSVSAKQLR", "pKd": 5.59}
{"seq_string": "LACTDPSER", "pKd": 6.24}

Input line: Please list pKd recorded for the sequence `YVMNIERQDY`
Output line: 4.99

Input line: Please list pKd recorded for the sequence `RLNNPVILSK`
Output line: 5.81

Input line: Please list pKd recorded for the sequence `IIKLPTLFGR`
Output line: 9.60

Input line: Please list pKd recorded for the sequence `KATTQIAPK`
Output line: 7.06

Input line: Please list pKd recorded for the sequence `SFSNTIQSYK`
Output line: 6.66

Input line: Please list pKd recorded for the sequence `TLSERISSK`
Output line: 5.64

Input line: Please list pKd recorded for the sequence `DITFLRPVLK`
Output line: 6.59

Input line: Please list pKd recorded for the sequence `RSDGYFLKIK`
Output line: 5.26

Input line: Please list pKd recorded for the sequence `KINSVKYYGR`
Output line: 7.52

Input line: Please list pKd recorded for the sequence `LLSIVVDINK`
Output line: 5.96

Input line: Please list pKd recorded for the sequence `KFNDYRKQMY`
Output line: 6.71

Input line: Please list pKd recorded for the sequence `TLNHVLALK`
Output line: 7.44

Input line: Please list pKd recorded for the sequence `SSFIVPEFAK`
Output line: 5.03

Input line: Please list pKd recorded for the sequence `KLMEEYLRR`
Output line: 8.25

====

target: HLA-B*15:17; experiment: IEDB peptide-MHC binding, purified MHC/competitive/fluorescence; filed as Kd, often an IC50 or EC50 that approximates it; bounds were set here for any values at or beyond the usual limits of such assays; conditions: source organism: Escherichia coli O139:H28 str. E24377A
value_kind: Kd

Input line: Please list Kd recorded for the sequence `WSILRQRCW`
Output line: 5.2 nM

====

target: HLA-B*15:01; assay: IEDB peptide-MHC binding, purified MHC/direct/fluorescence; filed as Kd, often an IC50 or EC50 that approximates it; bounds were set here for any values at or beyond the usual limits of such assays; conditions: source organism: Ectopseudomonas mendocina
pKd: −log10 of the molar value.
value_kind: pKd

Input line: Please list pKd recorded for the sequence `FSDARLAKL`
Output line: ≤ 4.70

====

biological target: HLA-A*24:03; assay: IEDB peptide-MHC binding, purified MHC/competitive/fluorescence; filed as Kd, often an IC50 or EC50 that approximates it; bounds were set here for any values at or beyond the usual limits of such assays; conditions: source organism: Francisella tularensis subsp. tularensis FSC198
value_kind: pKd
pKd field: float, defined as -log10 of concentration (mol/L).

Input line: Please list pKd recorded for the sequence `KYYIYRLYF`
Output line: 9.10
